Cited source: ChEMBL document CHEMBL1201862

This section presents compounds with their documented GI50 values.
Test system: UACC-257
Experiment: NCI tumour cell line growth inhibition, 48 h
Calls of active or inactive are those of the source. Rule as the data show it: active = GI50 up to about 1.1 µM and inactive = higher.
METRIC: GI50

1. CN1C(=S)CSc2ccccc21
> 100 µM (inactive)
2. CC1CC(C)(O)C2C3(C)CCCC2(COC3=O)C12CCC1(CCOC1=O)O2 (stereo unspecified)
> 250 µM (inactive)
3. CCCCCCCC(=O)OCC1OC(n2cc(F)c(=O)[nH]c2=O)C(N)C(O)C1O (stereo unspecified)
> 100 µM (inactive)
4. CC1=CC2(C)C=C[C@@H]1C(=O)[C@@]1(C)CC[C@@](O)(C(C)C)[C@H]1CC2
16.4 µM (inactive)
5. C=C(C)C1CCC(C(=O)O)CC1 (stereo unspecified)
> 100 µM (inactive)
6. COc1cccc(-c2nc(-c3cnccn3)n(Cc3ccccc3)n2)c1
> 100 µM (inactive)
